target: NLRP3 inflammasome (Homo sapiens)
Sequence (Q96P20 whole entry): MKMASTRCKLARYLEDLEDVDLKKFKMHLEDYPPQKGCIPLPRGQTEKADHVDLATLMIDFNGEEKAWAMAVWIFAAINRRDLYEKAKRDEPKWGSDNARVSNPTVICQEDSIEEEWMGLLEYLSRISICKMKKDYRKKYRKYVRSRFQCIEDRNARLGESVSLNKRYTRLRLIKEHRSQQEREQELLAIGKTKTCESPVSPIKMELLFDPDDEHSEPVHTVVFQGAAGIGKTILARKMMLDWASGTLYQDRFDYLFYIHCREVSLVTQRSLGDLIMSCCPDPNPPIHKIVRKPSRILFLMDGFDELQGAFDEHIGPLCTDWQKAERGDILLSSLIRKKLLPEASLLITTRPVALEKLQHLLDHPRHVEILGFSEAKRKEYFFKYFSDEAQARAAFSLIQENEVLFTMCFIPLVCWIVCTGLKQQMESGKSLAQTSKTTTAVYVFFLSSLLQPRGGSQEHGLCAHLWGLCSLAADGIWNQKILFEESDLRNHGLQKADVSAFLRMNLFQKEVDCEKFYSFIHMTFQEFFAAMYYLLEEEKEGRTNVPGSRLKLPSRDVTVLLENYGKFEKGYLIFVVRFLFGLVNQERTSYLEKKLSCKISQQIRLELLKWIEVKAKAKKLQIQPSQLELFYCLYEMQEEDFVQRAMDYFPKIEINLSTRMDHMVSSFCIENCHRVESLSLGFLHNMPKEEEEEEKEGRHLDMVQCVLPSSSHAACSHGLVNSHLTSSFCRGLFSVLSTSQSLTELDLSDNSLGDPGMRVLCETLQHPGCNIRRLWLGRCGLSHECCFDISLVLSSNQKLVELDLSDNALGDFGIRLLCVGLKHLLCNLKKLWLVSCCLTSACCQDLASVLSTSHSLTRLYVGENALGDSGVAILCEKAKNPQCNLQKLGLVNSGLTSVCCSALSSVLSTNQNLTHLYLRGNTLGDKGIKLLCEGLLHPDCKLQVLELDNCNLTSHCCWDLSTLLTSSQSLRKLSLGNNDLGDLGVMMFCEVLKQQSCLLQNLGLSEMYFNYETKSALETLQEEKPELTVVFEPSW
pIC50: −log10 of the molar value.
Recorded metric: pIC50

pIC50 lookup needed for CCOC(=O)c1ccccc1S(=O)(=O)NC(=O)Nc1nc(Cl)cc(OC)n1 [Compound 13, chlorimuron ethyl] , thanks.
< 4.30

----------
assay: XTT reduction viability assay; type: cell-based; conditions: human
Recorded metric: viability at 5 h, 50 µM (%)
Give the value, in units of %, as a plain number.

Any idea what viability at 5 h, 50 µM was measured for CCOC(=O)c1ccccc1S(=O)(=O)NC(=O)Nc1nc(Cl)cc(OC)n1 ?
103

Source: paper PMC11344480
